B1: BTBD1 (parent)
chain: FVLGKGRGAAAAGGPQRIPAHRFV

variants of: B1; assay: protein stability index of a GFP-peptide fusion (GPS, HEK-293T) (PSI 1-6); higher = more stable; conditions: c terminus: a fixed tail appended;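 further: lentivirally expressed fusions sorted by FACS into six bins by GFP to DsRed ratio, PSI derived from sequencing read proportions per bin multiplied by bin number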
measuredProperty: protein stability index
Respond with the number and no other words.

For record FVLGKGRGASAAGGPQRIPAHRFV the listed protein stability index is 2

For record FVLGKGRGAWAAGGPQRIPAHRFV the listed protein stability index is 1.98

For record FVLGKGRGAAAAGGPQKIPAHRFV the listed protein stability index is 2.01

For record FVLGKGRGAQAAGGPQRIPAHRFV the listed protein stability index is 2.03

For record FVLGFGRGAAAAGGPQRIPAHRFV the listed protein stability index is 1.95

For record FALGKGRGAAAAGGPQRIPAHRFV the listed protein stability index is 1.99
